- Tested on: peripheral blood mononuclear cells (PBMC), T cells
- TEST: ELISpot assay, IL-5 release (SFC) after stimulation with a-synuclein epitope pools
- Type: cell-based, human
- TEST SETTINGS: single peptide; second 'Pool Stimulated' section (from r296), 12 donors tested
READOUT LABEL: IL-g Total SFC (SFC)
Report the figure in SFC without appending any unit label.

Input: Read the entry 3521.0046 (FMKGLSKAKE; listed as Homo sapiens) and write its reported IL-g Total SFC.
Output: 0

Input: Give the measured IL-g Total SFC for 3521.0026 (MPSEEGYQD; listed as Homo sapiens)
Output: 66

Input: Given the substance 3521.0065 (FVKKDQLGK; listed as Homo sapiens) , write its reported IL-g Total SFC.
Output: 0

Input: Hello, please tell me recorded IL-g Total SFC for this one: 3521.0053 (KAKEGVVAAA; listed as Homo sapiens)
Output: 0

Input: # return recorded IL-g Total SFC for entry 3521.0007 (AAATGFVKK; listed as Homo sapiens)
Output: 0
